Data origin, for the record: ChEMBL document CHEMBL1275576

# Tested on: Parvimonas micra
# run-description: Antimicrobial activity against Parvimonas micra by agar dilution method in presence of 5% laked sheep blood
# Assay type: functional
measure-name: MIC90 (µg/mL)
Answer with a number only, understood to be in µg/mL.

Can you share its MIC90? I mean this compound: C[C@@H](O)[C@H]1C(=O)N2C(C(=O)O)=C(S[C@@H]3CN[C@H](CNS(N)(=O)=O)C3)[C@H](C)[C@H]12
0.125

Can you share its MIC90? I mean this compound: C[C@@H](O)[C@H]1C(=O)N2C(C(=O)O)=C(S[C@H]3C[C@@H](C(=O)N4CC[C@H](NC(=O)CNC(=N)N)C4)N(C)C3)[C@H](C)[C@H]12
0.125

Can you share its MIC90? I mean this compound: Cc1ncc([N+](=O)[O-])n1CCO
1

Can you share its MIC90? I mean this compound: C[C@@H](O)[C@H]1C(=O)N2C(C(=O)O)=C(S[C@@H]3CN[C@H](C(=O)N(C)C)C3)[C@H](C)[C@H]12
0.125

Can you share its MIC90? I mean this compound: CC(=N)N1CC[C@H](SC2=C(C(=O)O)N3C(=O)[C@H]([C@@H](C)O)[C@H]3C2)C1
0.125

----------
Provide the reported MIC of each item.
# run-description: Antimicrobial activity against Parabacteroides distasonis ATCC 8503 by agar dilution method in presence of 5% laked sheep blood
# Type: functional
Answer with a number only, understood to be in µg/mL.

Can you share its MIC? I mean this molecule: CCC[C@@H]1C[C@@H](C(=O)N[C@@H]([C@H]2O[C@H](SC)[C@H](O)[C@@H](O)[C@H]2O)[C@H](C)Cl)N(C)C1
0.06

Can you share its MIC? I mean this molecule: CC(=N)N1CC[C@H](SC2=C(C(=O)O)N3C(=O)[C@H]([C@@H](C)O)[C@H]3C2)C1
1

Can you share its MIC? I mean this molecule: C[C@@H](O)[C@H]1C(=O)N2C(C(=O)O)=C(S[C@H]3C[C@@H](C(=O)N4CC[C@H](NC(=O)CNC(=N)N)C4)N(C)C3)[C@H](C)[C@H]12
0.25

Can you share its MIC? I mean this molecule: C[C@@H](O)[C@H]1C(=O)N2C(C(=O)O)=C(S[C@@H]3CN[C@H](CNS(N)(=O)=O)C3)[C@H](C)[C@H]12
0.5

Can you share its MIC? I mean this molecule: C[C@@H](O)[C@H]1C(=O)N2C(C(=O)O)=C(S[C@@H]3CN[C@H](C(=O)N(C)C)C3)[C@H](C)[C@H]12
0.125

Can you share its MIC? I mean this molecule: Cc1ncc([N+](=O)[O-])n1CCO
1

----------
Provide the reported MIC of each item.
# Test system: Bifidobacterium breve
# run-description: Antimicrobial activity against Bifidobacterium breve ATCC 15700 by agar dilution method in presence of 5% laked sheep blood
# Assay type: functional

Can you share its MIC? I mean this compound: C[C@@H](O)[C@H]1C(=O)N2C(C(=O)O)=C(S[C@@H]3CN[C@H](C(=O)N(C)C)C3)[C@H](C)[C@H]12
1 µg/mL

Can you share its MIC? I mean this compound: C[C@@H](O)[C@H]1C(=O)N2C(C(=O)O)=C(S[C@@H]3CN[C@H](CNS(N)(=O)=O)C3)[C@H](C)[C@H]12
1 µg/mL

Can you share its MIC? I mean this compound: Cc1ncc([N+](=O)[O-])n1CCO
16 µg/mL

Can you share its MIC? I mean this compound: CC(=N)N1CC[C@H](SC2=C(C(=O)O)N3C(=O)[C@H]([C@@H](C)O)[C@H]3C2)C1
0.5 µg/mL

Can you share its MIC? I mean this compound: CCC[C@@H]1C[C@@H](C(=O)N[C@@H]([C@H]2O[C@H](SC)[C@H](O)[C@@H](O)[C@H]2O)[C@H](C)Cl)N(C)C1
≤ 0.03 µg/mL

Can you share its MIC? I mean this compound: C[C@@H](O)[C@H]1C(=O)N2C(C(=O)O)=C(S[C@H]3C[C@@H](C(=O)N4CC[C@H](NC(=O)CNC(=N)N)C4)N(C)C3)[C@H](C)[C@H]12
1 µg/mL
